Target: apoaequorin (Aequorea victoria, UniProt P07164)
Construct: purchased Chisso Corporation
Sequence (P07164 other isoform, or with tags, fused parts or gaps with the stated changes): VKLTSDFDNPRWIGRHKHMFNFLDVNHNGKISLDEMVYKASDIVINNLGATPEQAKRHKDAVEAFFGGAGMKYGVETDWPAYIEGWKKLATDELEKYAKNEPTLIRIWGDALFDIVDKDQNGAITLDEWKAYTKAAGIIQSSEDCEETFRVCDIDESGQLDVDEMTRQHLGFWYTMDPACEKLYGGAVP
Experiment: Fluorescence spectra of semi-synthetic BFP (coelenteramide analogue + apoaequorin, CaCl2)
Format: physicochemical
Conditions: 10 mM CaCl2 buffer, excitation 337 nm
Fluorescence intensity overview
Kindly format the answer as number then unit.

Answered cases to consult:
> print(dat)
                            compound.string     result
1  O=C(Cc1ccc(O)cc1)Nc1ncc(-c2ccc(O)cc2)nc1-c1ccc(O)cc1  100.5 rlu
2  O=C(Cc1ccc(O)cc1)Nc1ncc(-c2ccc(O)cc2)nc1-c1ccc([N+](=O)[O-])cc1    3.9 rlu
3  O=C(Cc1ccc(O)cc1)Nc1ncc(-c2ccc(O)cc2)nc1-c1ccc2ccccc2c1   85.6 rlu
4  O=C(Cc1ccc(O)cc1)Nc1ncc(-c2ccc(O)cc2)nc1-c1cc2sccc2s1  148.2 rlu
5  C=C(c1ccccc1)c1nc(-c2ccc(O)cc2)cnc1NC(=O)Cc1ccc(O)cc1   25.6 rlu
6  O=C(Cc1ccc(O)cc1)Nc1ncc(-c2ccc(O)cc2)nc1-c1cc2sc3ccsc3c2s1   63.5 rlu

## Task # return recorded Fluorescence intensity for input O=C(Cc1ccc(O)cc1)Nc1ncc(-c2ccc(O)cc2)nc1-c1ccsc1
## Result 195.7 rlu

## Task # return recorded Fluorescence intensity for input O=C(Cc1ccc(O)cc1)Nc1ncc(-c2ccc(O)cc2)nc1-c1ccc(-c2cccs2)s1
## Result 182.4 rlu

## Task # return recorded Fluorescence intensity for input O=C(Cc1ccc(O)cc1)Nc1ncc(-c2ccc(O)cc2)nc1-c1csc2ccccc12
## Result 80.0 rlu

Data provenance: patent US9056840B2
